So I've got a bunch of binders here, and I need their Kd values.
# System Tested: T1, human CD38 (human, UniProt P28907 43-300, limits assumed)
# T1 construct: Soluble analyte in SPR; the construct (limits, tags) is not described; also called huCD38
# Measurement Notes: SPR (Biacore), mAb captured on anti-Fc CM5 chip, huCD38 injected; n = 3
Reply with just the number (in nM).

Asked: Recorded Kd for mAb 7 (antibody, human IgG1, kappa, V domains shown, Humanized heavy and light chains with engineered Fc; also called anti-CD38 mAb 7; HEAVY CHAIN 6 / LIGHT CHAIN 2) VH: QVQLVQSGAEVAKPGASVKVSCKASGYTFTDYWMQWVKQRPGQGLEWIGTIYPGDGDTGYAQKFQGRVTMTADKSTSTVYMELSSLRSEDTAVYYCARGDYYGSNSLDYWGQGTLVTVSS VL: DIVMTQSPDSLAVSLGERATINCKSSQDVSTVLAWYQQKPGQSPRRLIYSASYRYIGVPDRFSGSGSGTDFTLTISSLQAEDVAVYYCQQHYSPPYTFGGGTKLEIKR , please?
Given back: 0.415

Asked: Please give the measured Kd for this binder: mAb 6 (antibody, human IgG1, kappa, V domains shown, Humanized heavy and light chains with engineered Fc; also called anti-CD38 mAb 6; HEAVY CHAIN 5 / LIGHT CHAIN 3) VH: QVQLVQSGAEVAKPGASVKVSCKASGYTFTDYWMQWVRQAPGQGLEWIGTIYPGDGDTSYAQKFQGRVTMTADTSTSTVYMELSSLRSEDTAVYYCARGDYYGSNSLDYWGQGTLVTVSS VL: DIVMTQSPDSLAVSLGERATINCKSSQDVSTVVAWYQQKPGQSPRRLIYSASYRYIGVPDRFSGSGSGTDFTFTISSLQAEDVAVYYCQQHYSPPYTFGGGTKLEIKR
Given back: 0.385

Asked: Quick check: Kd of mAb 8 (antibody, human IgG1, kappa, V domains shown, Humanized heavy and light chains with engineered Fc; also called anti-CD38 mAb 8; HEAVY CHAIN 6 / LIGHT CHAIN 3) VH: QVQLVQSGAEVAKPGASVKVSCKASGYTFTDYWMQWVKQRPGQGLEWIGTIYPGDGDTGYAQKFQGRVTMTADKSTSTVYMELSSLRSEDTAVYYCARGDYYGSNSLDYWGQGTLVTVSS VL: DIVMTQSPDSLAVSLGERATINCKSSQDVSTVVAWYQQKPGQSPRRLIYSASYRYIGVPDRFSGSGSGTDFTFTISSLQAEDVAVYYCQQHYSPPYTFGGGTKLEIKR ?
Given back: 0.191

Asked: Query: Kd; subject: mAb 5 (antibody, human IgG1, kappa, V domains shown, Humanized heavy and light chains with engineered Fc; also called anti-CD38 mAb 5; HEAVY CHAIN 5 / LIGHT CHAIN 2) VH: QVQLVQSGAEVAKPGASVKVSCKASGYTFTDYWMQWVRQAPGQGLEWIGTIYPGDGDTSYAQKFQGRVTMTADTSTSTVYMELSSLRSEDTAVYYCARGDYYGSNSLDYWGQGTLVTVSS VL: DIVMTQSPDSLAVSLGERATINCKSSQDVSTVLAWYQQKPGQSPRRLIYSASYRYIGVPDRFSGSGSGTDFTLTISSLQAEDVAVYYCQQHYSPPYTFGGGTKLEIKR
Given back: 0.699
